- subject of test: CDK9/cyclin T1 (Homo sapiens)
- Sequence (O60563 whole entry): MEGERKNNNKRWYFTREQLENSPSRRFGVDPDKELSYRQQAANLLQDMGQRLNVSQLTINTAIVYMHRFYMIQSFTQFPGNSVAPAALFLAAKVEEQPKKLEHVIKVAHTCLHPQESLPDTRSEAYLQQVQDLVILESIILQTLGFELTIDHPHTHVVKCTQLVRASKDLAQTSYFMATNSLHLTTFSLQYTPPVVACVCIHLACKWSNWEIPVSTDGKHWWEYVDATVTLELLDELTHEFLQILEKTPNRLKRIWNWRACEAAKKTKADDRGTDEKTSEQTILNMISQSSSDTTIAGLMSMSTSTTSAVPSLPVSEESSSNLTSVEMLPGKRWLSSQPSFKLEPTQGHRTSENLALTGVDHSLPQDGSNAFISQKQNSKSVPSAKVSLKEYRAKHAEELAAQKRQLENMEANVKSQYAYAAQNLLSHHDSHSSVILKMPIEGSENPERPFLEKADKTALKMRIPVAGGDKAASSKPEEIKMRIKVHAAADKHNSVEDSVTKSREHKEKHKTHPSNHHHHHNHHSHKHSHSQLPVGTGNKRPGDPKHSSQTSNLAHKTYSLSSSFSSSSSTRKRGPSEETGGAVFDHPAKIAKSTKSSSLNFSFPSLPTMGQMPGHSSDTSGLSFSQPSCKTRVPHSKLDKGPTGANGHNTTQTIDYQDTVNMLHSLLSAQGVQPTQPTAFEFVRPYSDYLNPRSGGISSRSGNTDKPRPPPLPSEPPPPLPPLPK
- Sequence (P50750 whole entry): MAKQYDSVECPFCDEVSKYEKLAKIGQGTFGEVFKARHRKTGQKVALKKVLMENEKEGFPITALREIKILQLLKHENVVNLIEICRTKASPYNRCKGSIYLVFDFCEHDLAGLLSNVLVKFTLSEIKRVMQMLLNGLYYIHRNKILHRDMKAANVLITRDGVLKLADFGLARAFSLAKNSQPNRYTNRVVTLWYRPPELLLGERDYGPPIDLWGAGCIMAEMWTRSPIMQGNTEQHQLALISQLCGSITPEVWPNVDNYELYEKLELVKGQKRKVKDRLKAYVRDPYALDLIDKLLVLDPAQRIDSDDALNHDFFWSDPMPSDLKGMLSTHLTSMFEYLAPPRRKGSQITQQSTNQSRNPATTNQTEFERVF
- test name: Inhibition of CDK9/cyclin T1 (unknown origin) incubated for 2 hrs in presence of ATP by FRET based LANCE assay
pIC50: −log10 of the molar value.
readout name: pIC50

Worked examples, 8 compounds total:
Cc1n[nH]c2ccc(-c3cncc(N[C@H](C)c4ccc(F)cc4)n3)cc12: 5.17
OCC(Nc1cncc(-c2ccc3occc3c2)n1)c1ccccc1 (stereo not given): 5.05
Cc1n[nH]c2ccc(-c3cc(N[C@@H](CO)c4ccc(F)cc4)cnc3Cl)cc12: 7.58
Cc1n[nH]c2ccc(-c3cncc(N[C@@H](CO)c4ccc(Cl)cc4)n3)cc12: 7.12
Cc1n[nH]c2ccc(-c3cncc(NC(CO)c4ccccc4F)n3)cc12 (racemic): 7.62
Cc1n[nH]c2ccc(-c3cncc(N[C@@H](CO)c4ccccc4)n3)cc12: 8.22
Cc1n[nH]c2ccc(-c3cncc(NC(CO)c4cccc(C(F)(F)F)c4)n3)cc12 (racemic): 6.47
COc1ccc([C@H](CO)Nc2cncc(-c3ccc4[nH]nc(C)c4c3)n2)cc1: 6.11

[a] Cc1n[nH]c2ccc(-c3cncc(N[C@@H](CO)c4ccc(F)c(F)c4)n3)cc12
[b] OC[C@H](Nc1cncc(-c2ccc3[nH]ncc3c2)n1)c1ccccc1
Prompt: Hi, I'm comparing a with b and wondering which one has the bigger number for pIC50. Any idea? Kindly state the label of the option you pick.
Response: a

[I] Cc1n[nH]c2ccc(-c3cncc(NC(CO)c4ccc(F)c(F)c4)n3)cc12 (racemic)
[II] Cc1n[nH]c2ccc(-c3cncc(NC(C)CO)n3)cc12 (stereo not given)
[III] Cc1n[nH]c2ccc(-c3cncc(NC(CO)c4cccc(OC(F)(F)F)c4)n3)cc12 (racemic)
[IV] Cc1n[nH]c2ccc(-c3cncc(N[C@@H](CO)c4cccc(F)c4)n3)cc12
[V] Cc1n[nH]c2ccc(-c3cc(N[C@@H](CO)c4ccccc4)cnc3Cl)cc12
Prompt: Put the items in sequence by pIC50, from largest down. Your reply should list the labels following the order given in the request.
Response: V, IV, I, III, II

[1] Cc1n[nH]c2ccc(-c3cncc(NC4CCCC(O)C4)n3)cc12 (stereo not given)
[2] Cc1n[nH]c2ccc(-c3cncc(N[C@@H](CO)c4ccc(F)cc4)n3)cc12
Prompt: Hi, I'm comparing 1 with 2 and wondering which one has the bigger number for pIC50. Any idea? Kindly state the label of the option you pick.
Response: 2

[a] Cc1n[nH]c2ccc(-c3cncc(N[C@H](C)c4ccccc4)n3)cc12
[b] Cc1n[nH]c2ncc(-c3cncc(N[C@@H](CO)c4ccccc4)n3)cc12
Prompt: Hi, I'm comparing a with b and wondering which one has the bigger number for pIC50. Any idea? Kindly state the label of the option you pick.
Response: b

The reported measurements were obtained from ChEMBL document CHEMBL4840335.
